Hi! I'm sharing some IC50 results obtained with Matrix metalloproteinase-9 (Homo sapiens).
Sequence (P14780 whole entry): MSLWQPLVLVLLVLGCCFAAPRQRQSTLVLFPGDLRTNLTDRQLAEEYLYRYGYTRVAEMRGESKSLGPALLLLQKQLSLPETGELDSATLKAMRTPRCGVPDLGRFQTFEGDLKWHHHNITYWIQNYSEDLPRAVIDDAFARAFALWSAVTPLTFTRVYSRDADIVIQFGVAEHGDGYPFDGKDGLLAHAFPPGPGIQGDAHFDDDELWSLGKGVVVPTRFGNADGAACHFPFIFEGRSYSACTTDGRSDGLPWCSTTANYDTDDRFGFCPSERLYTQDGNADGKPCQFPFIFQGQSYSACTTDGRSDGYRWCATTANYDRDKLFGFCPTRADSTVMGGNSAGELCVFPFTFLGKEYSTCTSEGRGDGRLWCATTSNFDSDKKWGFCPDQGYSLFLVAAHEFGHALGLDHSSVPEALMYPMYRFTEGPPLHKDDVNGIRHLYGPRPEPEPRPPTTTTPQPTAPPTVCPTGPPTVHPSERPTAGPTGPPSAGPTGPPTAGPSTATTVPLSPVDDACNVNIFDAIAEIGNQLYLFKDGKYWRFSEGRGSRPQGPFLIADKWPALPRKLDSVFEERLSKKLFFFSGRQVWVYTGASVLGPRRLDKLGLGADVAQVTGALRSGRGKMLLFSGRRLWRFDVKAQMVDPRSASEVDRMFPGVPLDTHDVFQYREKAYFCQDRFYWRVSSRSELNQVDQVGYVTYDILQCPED

Lab note: measured IC50 of N#C/C(=C\c1ccc(-c2cccs2)s1)c1nc2ccccc2[nH]1 was > 100 µM

Item: COc1ccc(/C=C(\C#N)c2nc3ccccc3[nH]2)cc1I | IC50: > 100 µM

* * *

Biological target: Botulinum neurotoxin type B (Clostridium botulinum)
Sequence (P10844 whole entry): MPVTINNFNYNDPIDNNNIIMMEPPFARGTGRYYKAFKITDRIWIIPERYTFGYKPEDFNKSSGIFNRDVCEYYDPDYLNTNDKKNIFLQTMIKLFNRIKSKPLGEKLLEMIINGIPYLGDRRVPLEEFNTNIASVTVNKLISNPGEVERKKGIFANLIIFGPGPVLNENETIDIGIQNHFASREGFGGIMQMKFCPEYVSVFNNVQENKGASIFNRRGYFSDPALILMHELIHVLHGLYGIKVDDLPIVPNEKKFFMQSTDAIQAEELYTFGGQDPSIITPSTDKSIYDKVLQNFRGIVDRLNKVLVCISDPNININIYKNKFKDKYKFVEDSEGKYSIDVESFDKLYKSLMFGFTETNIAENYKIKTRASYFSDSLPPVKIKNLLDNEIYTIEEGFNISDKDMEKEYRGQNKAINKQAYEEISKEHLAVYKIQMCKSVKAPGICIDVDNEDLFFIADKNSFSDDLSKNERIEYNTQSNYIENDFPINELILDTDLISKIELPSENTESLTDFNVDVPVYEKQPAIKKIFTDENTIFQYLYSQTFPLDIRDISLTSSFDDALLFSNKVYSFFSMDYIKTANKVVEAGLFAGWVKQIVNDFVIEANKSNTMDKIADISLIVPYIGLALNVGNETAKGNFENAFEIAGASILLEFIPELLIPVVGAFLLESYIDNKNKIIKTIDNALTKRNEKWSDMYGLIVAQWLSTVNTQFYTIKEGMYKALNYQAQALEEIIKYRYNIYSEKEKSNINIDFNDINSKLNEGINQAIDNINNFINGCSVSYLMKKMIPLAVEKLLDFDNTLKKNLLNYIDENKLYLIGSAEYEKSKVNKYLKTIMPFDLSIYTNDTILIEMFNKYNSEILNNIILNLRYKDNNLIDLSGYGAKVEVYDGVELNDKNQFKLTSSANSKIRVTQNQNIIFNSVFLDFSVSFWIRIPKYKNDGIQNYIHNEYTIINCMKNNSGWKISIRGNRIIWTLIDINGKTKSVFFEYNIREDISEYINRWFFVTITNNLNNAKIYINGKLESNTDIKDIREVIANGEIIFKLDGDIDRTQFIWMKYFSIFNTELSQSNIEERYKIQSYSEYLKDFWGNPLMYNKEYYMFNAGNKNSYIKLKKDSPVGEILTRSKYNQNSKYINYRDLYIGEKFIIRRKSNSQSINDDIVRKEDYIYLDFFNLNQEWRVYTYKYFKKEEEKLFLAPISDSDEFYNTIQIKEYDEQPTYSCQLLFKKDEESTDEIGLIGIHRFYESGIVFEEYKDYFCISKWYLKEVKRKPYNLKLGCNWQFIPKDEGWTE
pIC50: −log10 of the molar value.
assay.endpoint: pIC50

The value of pIC50 measured for the compound COc1ccc(/C=C(\C#N)c2nc3ccccc3[nH]2)cc1I turned out to be < 4.00

The reported pIC50 of the compound N#C/C(=C\c1ccc(-c2cccs2)s1)c1nc2ccccc2[nH]1 was < 4.00
